procedureDetails: Microsomal stability, rat liver microsomes
Assay type: in vitro ADME
measurementConditions: SD rat liver microsomes 0.5 mg protein/mL, 1 μM test compound, NADPH, 37° C., 60 min; read-out: RLM Clint
valueKind: microsomal CLint at 1 μM

molecule	microsomal CLint at 1 μM
CCn1nccc1C(=O)N[C@H](C(=O)Nc1ccc([C@H](C)[C@@H](NC(C)=O)C(=O)N2CCN(C)[C@H](C)C2)cc1F)[C@H]1CC[C@H](C)CC1 [C, reference compound]	> 20 µL/min/mg
CCC(=O)N[C@@H](C(=O)N1CCN(C)[C@H](C)C1)[C@@H](C)c1ccc(NC(=O)[C@@H](NC(=O)c2ccnn2CCF)[C@H]2CC[C@H](C)CC2)c(F)c1 [F, reference compound]	9.6 to 20 µL/min/mg
CCC(=O)N[C@@H](C(=O)N1C[C@@H](C)N(C)[C@@H](C)C1)[C@@H](C)c1ccc(NC(=O)[C@@H](NC(=O)c2ccnn2CC)C(C2CC2)C2CC2)c(F)c1	9.6 to 20 µL/min/mg
CCC(=O)N[C@@H](C(=O)N1CCN(C)[C@H](C)C1)[C@@H](C)c1ccc(NC(=O)[C@@H](NC(=O)c2ccnn2CC)[C@H]2CC[C@H](C)CC2)c(F)c1 [G, reference compound]	> 20 µL/min/mg

Now let's try a different one.
Please report microsomal CLint at 1 μM for the following molecule: CCC(=O)N[C@@H](C(=O)N1CCN(C)[C@H](C)C1)[C@@H](C)c1ccc(NC(=O)[C@@H](NC(=O)c2ccnn2CC(F)F)C(C2CC2)C2CC2)c(F)c1
< 9.6 µL/min/mg

====

Task for the reader: assign each of the following molecules its reported IC50.
testSystem: IL-17A/A (Homo sapiens)
Sequence (Q16552 24-155): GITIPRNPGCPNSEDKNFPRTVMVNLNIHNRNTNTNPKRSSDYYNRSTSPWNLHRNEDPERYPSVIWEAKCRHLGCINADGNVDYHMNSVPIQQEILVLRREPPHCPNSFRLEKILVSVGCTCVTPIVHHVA
procedureDetails: IL-17A/A HEK-Blue Cell Assay
Type: cell-based
measurementConditions: HEK-Blue IL-17 reporter cells, IL-17A/A stimulation, 20 hours, SEAP readout; read-out: IL17 AA HEK-5 pIC50 (converted)

Past entries and their recorded results:
molecule	IC50
CCn1nccc1C(=O)N[C@H](C(=O)Nc1ccc([C@H](C)[C@@H](NC(=O)C(C)OCCOC)C(=O)N2CCN(C)CC2)cc1F)C(C1CC1)C1CC1 (single isomer, unassigned) [Compound 314]	100 to 10000 nM
CCC(=O)N[C@@H](C(=O)N1CCC[C@@H](N)C1)[C@@H](C)c1ccc(NC(=O)[C@@H](NC(=O)c2ccnn2CC)C(C2CC2)C2CC2)c(F)c1	10 to 100 nM
CCC(=O)N[C@@H](C(=O)N1CCN(C)CC1)[C@@H](C)c1ccc(NC(=O)[C@@H](NC(=O)c2ccnn2CCF)C(C2CC2)C2CC2)c(F)c1	10 to 100 nM

Below is a list of molecules. For each, state its recorded IC50.
1. CCn1nccc1C(=O)N[C@H](C(=O)Nc1ccc([C@H](C)[C@@H](NC(=O)C(C)OCCOC)C(=O)N2CCN(C)CC2)cc1F)C(C1CC1)C1CC1 (single isomer, unassigned) [Compound 315]
2. C[C@@H](c1ccc(NC(=O)[C@@H](NC(=O)C2(F)CC2)C(C2CC2)C2CC2)c(F)c1)[C@@H](NC(=O)N(C)C1CC1)C(=O)N1CCN(C)CC1
3. CCOC(C)C(=O)N[C@@H](C(=O)N1CCN(C)[C@H](C)C1)[C@@H](C)c1ccc(NC(=O)[C@@H](NC(=O)c2ccnn2CC)C(C2CC2)C2CC2)c(F)c1 (single isomer, unassigned) [Compound 323]
4. CCC(=O)N[C@@H](C(=O)N1CCN(C)[C@H](C)C1)[C@@H](C)c1ccc(NC(=O)[C@@H](NC(=O)c2ccnn2C2CC2)C(C2CC2)C2CC2)c(F)c1

["10 to 100 nM", "< 10 nM", "< 10 nM", "< 10 nM"]

Below is a list of molecules. For each, state its recorded IC50.
1. CCC(=O)N[C@@H](C(=O)N1CCN(C)CC1)[C@@H](C)c1ccc(NC(=O)[C@@H](NC(=O)c2ccnn2C2CC2)C(C2CC2)C2CC2)c(F)c1
2. CO[C@@H](C)C(=O)N[C@@H](C(=O)N1C[C@H]2CC[C@@H](C1)N2C)[C@@H](C)c1ccc(NC(=O)[C@@H](NC(=O)c2ccnn2C(C)C)C(C2CC2)C2CC2)c(F)c1
3. CCn1nccc1C(=O)N[C@H](C(=O)Nc1ccc([C@H](C)[C@@H](NC(=O)C(C2CC2)C2CC2)C(=O)N2CCN(C)[C@H](C)C2)cc1F)C(C1CC1)C1CC1
4. CCC(=O)N[C@@H](C(=O)N1C[C@@H]2C[C@H]1CN2C)[C@@H](C)c1ccc(NC(=O)[C@@H](NC(=O)c2ccnn2CC)C(C2CC2)C2CC2)c(F)c1

["10 to 100 nM", "< 10 nM", "< 10 nM", "10 to 100 nM"]

Below is a list of molecules. For each, state its recorded IC50.
1. CCC(=O)N[C@@H](C(=O)N1CCN(C)[C@H](C)C1)[C@@H](C)c1ccc(NC(=O)[C@@H](NC(=O)c2ccnn2CC(F)F)C(C2CC2)C2CC2)c(F)c1
2. CCC(=O)N[C@@H](C(=O)N1CCN(C)[C@H](C)C1)[C@@H](C)c1ccc(NC(=O)[C@@H](NC(=O)c2ccnn2CCF)C(C2CC2)C2CC2)c(F)c1
3. CCn1nccc1C(=O)N[C@H](C(=O)Nc1ccc([C@H](C)[C@@H](NC(=O)[C@H](C)OC)C(=O)N2CCN(C)CC2)cc1F)C(C1CC1)C1CC1
4. CCn1nccc1C(=O)N[C@H](C(=O)Nc1ccc([C@H](C)[C@@H](NC(=O)[C@H](C)OC)C(=O)N2CCN(C)C(CF)C2)cc1F)C(C1CC1)C1CC1 (single isomer, unassigned)
5. CCC(OC)C(=O)N[C@@H](C(=O)N1CCN(C)[C@H](C)C1)[C@@H](C)c1ccc(NC(=O)[C@@H](NC(=O)C2(F)CC2)C(C2CC2)C2CC2)c(F)c1 (single isomer, unassigned) [Compound 337]
6. CCn1nccc1C(=O)N[C@H](C(=O)Nc1ccc([C@H](C)[C@@H](NC(=O)COC)C(=O)N2CCN(C)C[C@@H]2C)cc1F)C(C1CC1)C1CC1

< 10 nM
< 10 nM
< 10 nM
< 10 nM
< 10 nM
< 10 nM

Below is a list of molecules. For each, state its recorded IC50.
1. CCC(=O)N[C@@H](C(=O)N1CCN(C)CC1)[C@@H](C)c1ccc(NC(=O)[C@H](NC(=O)c2ccnn2CC)C(C2CC2)C2CC2)c(F)c1
2. CCn1nccc1C(=O)N[C@H](C(=O)Nc1ccc([C@H](C)[C@@H](NC(=O)N(C)C2CC2)C(=O)N2CCN(C)[C@H](C)C2)cc1F)C(C1CC1)C1CC1
3. COC(=O)N1CC[C@H]1C(=O)N[C@@H](C(=O)N1CCN(C)CC1)[C@@H](C)c1ccc(NC(=O)[C@@H](NC(=O)C2(F)CC2)C(C2CC2)C2CC2)c(F)c1
4. CCn1nccc1C(=O)N[C@H](C(=O)Nc1ccc([C@H](C)[C@@H](NC(=O)[C@H](C)OC)C(=O)N2CCN(C)C[C@@H]2C)cc1F)C(C1CC1)C1CC1

1. 10 to 100 nM
2. < 10 nM
3. 10 to 100 nM
4. < 10 nM
